# IC50 values compiled below
Test system: phospho-AKT in RAW 264.7 cells (PI3Kγ)
METHOD NOTES: PI3Kγ selective assay, phospho-AKT in RAW 264.7 cells
Type: cell-based
CONDITION DETAILS: Mus musculus, RAW264.7; stimulated with C5a; ranges less than 100 nM and between 100 nM and 1 μM (given as 100-1000); read-out: IC50 for phospho-AKT, RAW 264.7 cell model

- CHEM SMILES: "COc1ccc(-c2cnc(N)nc2N[C@@H](C)c2cc3cccc(Cl)c3c(=O)n2-c2ccccc2)cn1"
  READOUT VALUE: "< 100 nM"
- CHEM SMILES: "COc1ncc(-c2cccc3cc([C@H](C)Nc4nc(N)ncc4C#N)n(C(C)C)c(=O)c23)cn1"
  READOUT VALUE: "100 to 1000 nM"

Continue with the next molecule.
Name the recorded IC50 of the molecule listed here: CC(C)n1c([C@H](C)Nc2nc(N)ncc2C#N)cc2cccc(-c3ccc(=O)n(C)c3)c2c1=O
100 to 1000 nM

The measured values listed here are drawn from patent US8785470B2.
